System: U-251
Test method notes: NCI tumour cell line growth inhibition, 48 h
Calls of active or inactive are those of the source. Rule as the data show it: active = GI50 up to about 1.1 µM and inactive = higher.
Measured metric: GI50

[ask] GI50 for N#CC1([N+](=O)[O-])C=C1c1ccccc1 (stereo not given) ?
[reply] > 100 µM (inactive)

Hi there! I need GI50 for each item below, if you can.
1. Clc1ccc(OCc2nnc(CCCCCCCCc3nnc(COc4ccc(Cl)cc4Cl)o3)o2)c(Cl)c1
2. CC1(C)/C(=N\O)C2(C#N)CCC1C2 (stereo not given)
3. O=C(CC(=O)Nc1ccccc1)NNC(Sc1ccccc1)c1cc(/N=N/c2ccc(Br)cc2)ccc1O (stereo not given)

[reply]
1: > 100 µM (inactive); 2: > 100 µM (inactive); 3: 6.31 µM (inactive)

Source: ChEMBL document CHEMBL1201862
